These data points were gathered from the supplement of paper PMC8253809.

tested on: HNSC; assay: growth inhibition (% activity, log2 RLU normalised to DMSO / staurosporine); higher = more growth inhibition; details: 33 µM
experimental.endpoint: growth inhibition (%)
Please state the figure in %; there is no need to write the unit.

Example compounds with recorded growth inhibition:
[[record]]
compound = "COc1ccc(-c2nc3ccc(C4=NNC(=O)CC4C)cc3[nH]2)cc1 (stereo unspecified)"
experimental_endpoint = "growth inhibition"
measurement_unit = "%"
value_reported = 3

[[record]]
compound = "CCOC(=O)c1c(C)n(C)c2ccc(O)cc12"
experimental_endpoint = "growth inhibition"
measurement_unit = "%"
value_reported = -0.219


Entry under test: `CC[N+](CC)(CC)CCOc1cccc(OCC[N+](CC)(CC)CC)c1OCC[N+](CC)(CC)CC` . Its growth inhibition was 1.9

Entry under test: `Nc1ccn(C[C@@H](CO)OCP(=O)(O)O)c(=O)n1` . Its growth inhibition was 3.12

* * *

system: SUDIPGIV (diffuse intrinsic pontine glioma line); assay: growth inhibition (% activity, log2 RLU normalised to DMSO / staurosporine); higher = more growth inhibition; details: 33 µM
Reported growth inhibition values follow for various molecules
Please state the figure in %; there is no need to write the unit.

Example molecules with recorded growth inhibition:
[[record]]
smiles = "Cn1ccnc1S"
value_reported = -2.69

[[record]]
smiles = "CCC[C@H](N[C@@H](C)C(=O)N1[C@H](C(=O)O)C[C@@H]2CCCC[C@@H]21)C(=O)OCC"
value_reported = 0.563


Entry under test: `CC(=O)NS(=O)(=O)c1ccc(N)cc1` . Its growth inhibition was -0.27

Entry under test: `O=C(Nc1cccc2c(=O)cc(-c3nnn[nH]3)oc12)c1ccc(OCCCCc2ccccc2)cc1` . Its growth inhibition was 2.11

Entry under test: `CC(=O)[C@H]1CC[C@H]2[C@@H]3CCC4=CC(=O)CC[C@]4(C)[C@H]3CC[C@]12C` . Its growth inhibition was -1.26

* * *

tested on: DIPGX9 (diffuse intrinsic pontine glioma line); test: growth inhibition (% activity, log2 RLU normalised to DMSO / staurosporine); higher = more growth inhibition; details: 33 µM
Reported growth inhibition values follow for various compounds
Please state the figure in %; there is no need to write the unit.

Example compounds with recorded growth inhibition:
[[record]]
compound = "CC(C[N+](C)(C)C)OC(N)=O (stereo not drawn)"
measured_on = "DIPGX9"
experimental_endpoint = "growth inhibition"
value_reported = 0.0426

[[record]]
compound = "O=C(O)c1ccc(-n2nc(-c3ccccc3O)nc2-c2ccccc2O)cc1"
measured_on = "DIPGX9"
experimental_endpoint = "growth inhibition"
value_reported = -2.68

[[record]]
compound = "CCCCc1ncc(/C=C(\\Cc2cccs2)C(=O)O)n1Cc1ccc(C(=O)O)cc1"
measured_on = "DIPGX9"
experimental_endpoint = "growth inhibition"
value_reported = -0.197

[[record]]
compound = "Cc1c(-c2ccc(O)cc2)n(Cc2ccc(OCCN3CCCCCC3)cc2)c2ccc(O)cc12"
measured_on = "DIPGX9"
experimental_endpoint = "growth inhibition"
value_reported = 1.94

[[record]]
compound = "C=Cc1c(C)c2cc3nc(cc4[nH]c(cc5nc(cc1[nH]2)C(C)=C5CCC(=O)O)c(CCC(=O)OC)c4C)C1(C)C3=CC=C(C(=O)OC)C1C(=O)OC (stereo not drawn)"
measured_on = "DIPGX9"
experimental_endpoint = "growth inhibition"
value_reported = -0.022

[[record]]
compound = "O=c1c(-c2ccc(O)cc2)coc2cc(O)ccc12"
measured_on = "DIPGX9"
experimental_endpoint = "growth inhibition"
value_reported = -0.874


Entry under test: `COc1ccc2cccc(CCNC(C)=O)c2c1` . Its growth inhibition was -2.3

Entry under test: Cc1cccc(CN2CCN(C(c3ccccc3)c3ccc(Cl)cc3)CC2)c1 (stereo not drawn) . Its growth inhibition was 8.12

Entry under test: `COc1cc(C(C)=O)ccc1OCCCN1CCC(c2noc3cc(F)ccc23)CC1` . Its growth inhibition was 0.361

Entry under test: `CN(C)/N=N/c1[nH]cnc1C(N)=O` . Its growth inhibition was 3.08

Entry under test: `CN(Cc1ccc(C(C)(C)C)cc1)Cc1cccc2ccccc12` . Its growth inhibition was 2.12

Entry under test: `CCCOc1ccc(C(=O)OCCN(CC)CC)cc1N` . Its growth inhibition was -2.19

Entry under test: `CC1(C)Cc2c(-c3ccccc3)c(-c3ccc(Cl)cc3)c(CC(=O)O)n2C1` . Its growth inhibition was 1.48

Entry under test: CCN(CC)CCNC(C(=O)OCCC(C)C)c1ccccc1 (stereo not drawn) . Its growth inhibition was 1.08

Entry under test: `COc1ccc2c(c1OC)C(=O)O[C@@H]2[C@H]1c2c(cc3c(c2OC)OCO3)CCN1C` . Its growth inhibition was -1.08

Entry under test: `C#Cc1cccc(Nc2ncnc3cc(OCCOC)c(OCCOC)cc23)c1` . Its growth inhibition was 2.64
